Origin of measurements: patent US5565475A

- target-under-test: muscarinic receptors
- test-details: Inhibition of 3H-oxotremorine-M binding to muscarinic receptors (rat cerebral cortical membranes)
- stated-conditions: 3 nM 3H-oxotremorine-M, pH 7.4, 15 minutes at 25° C., read-out: Inhibition of 3H-Oxo
Structures can show the parent of a compound that is named as a salt.
IC50 overview
value-kind: IC50 (nM)

> print(dat)
                                   compound  numeric.value
1  CCOc1nsnc1C1=CCCN(C)C1 [Compound 2, oxalate]            5.7
2  CCCOc1nsnc1C1=CCCN(C)C1 [Compound 3, oxalate]            1.6
3  CCCSc1nsnc1C1=CCCN(C)C1 [Compound 47, oxalate]            0.9
4  CCCCOc1nsnc1C1=CCCN(C)C1 [Compound 4, oxalate]              2
5  COc1nsnc1C1=CCCN(C)C1 [Compound 1, oxalate]             22
6  C=CCCCCOc1nsnc1C1=CCCN(C)C1 [Compound 33, oxalate]            2.7
